Test system: barnyardgrass (Echinochloa crus-galli)
assay: Test A postemergence, visual injury rating 0-100
Assay type: in vivo
assay.context: 500 g ai/ha, 0 to 100 scale
value.type: Barnyardgrass plant response rating
Give the figure by itself; no unit, no explanation.

stdin: Query (compound): CC1=[N+]([O-])C(C(=O)Nc2ccc(F)c(F)c2F)C(c2ccc(C(F)(F)F)cc2)C1 (racemic) ; field requested: Barnyardgrass plant response rating
stdout: 60

stdin: Query (compound): CC1=[N+]([O-])C(C(=O)Nc2cccc(F)c2F)C(c2cccc(Oc3ncc(Cl)cn3)c2)C1 (racemic) ; field requested: Barnyardgrass plant response rating
stdout: 60

stdin: Query (compound): CC1=[N+]([O-])C(C(=O)Nc2ccccc2S(C)(=O)=O)C(c2ccc(C(F)(F)F)cc2)C1 (racemic) ; field requested: Barnyardgrass plant response rating
stdout: 60

====

Tested on: wheat (Triticum aestivum)
assay: Test A postemergence, visual injury rating 0-100
Type: in vivo
assay.context: 125 g ai/ha, 0 to 100 scale
Give Wheat plant response rating for every item shown.
Give the figure by itself; no unit, no explanation.

stdin: Hi! What's the reported Wheat plant response rating for CC1=[N+]([O-])[C@H](C(=O)Nc2cccc(F)c2F)[C@@H](c2ccc(C)cc2)C1 (relative stereo) [Compound 6] on wheat (Triticum aestivum)?
stdout: 60

stdin: Hi! What's the reported Wheat plant response rating for CC1=[N+]([O-])C(C(=O)Nc2cccc(F)c2F)C(c2ccc(C)c(C(F)(F)F)c2)C1 (racemic) [Compound 62] on wheat (Triticum aestivum)?
stdout: 40

stdin: Hi! What's the reported Wheat plant response rating for CC1=[N+]([O-])C(C(=O)Nc2ccc(F)cc2F)C(c2ccc(C(F)(F)F)cc2)C1 (racemic) [Compound 46] on wheat (Triticum aestivum)?
stdout: 0

stdin: Hi! What's the reported Wheat plant response rating for CC1=[N+]([O-])C(C(=O)Nc2cccc(F)c2F)C(c2ccc(C(F)(F)F)cc2F)C1 (centres unmarked) [Compound 101] on wheat (Triticum aestivum)?
stdout: 10

stdin: Hi! What's the reported Wheat plant response rating for CC1=[N+]([O-])C(C(=O)Nc2cccc(F)c2F)C(c2cccc(Cl)c2)C1 (racemic) [Compound 3] on wheat (Triticum aestivum)?
stdout: 30

stdin: Hi! What's the reported Wheat plant response rating for CC1=[N+]([O-])C(C(=O)Nc2ccccc2)C(c2ccc(F)c(F)c2)C1 (racemic) [Compound 17] on wheat (Triticum aestivum)?
stdout: 0

stdin: Hi! What's the reported Wheat plant response rating for CC1=[N+]([O-])C(C(=O)Nc2cccc(F)c2F)C(c2ccc(OC(F)(F)F)c(F)c2)C1 (racemic) [Compound 113] on wheat (Triticum aestivum)?
stdout: 0

stdin: Hi! What's the reported Wheat plant response rating for COc1cc(OC)cc(C2CC(C)=[N+]([O-])C2C(=O)Nc2cccc(F)c2F)c1 (centres unmarked) [Compound 96] on wheat (Triticum aestivum)?
stdout: 0

====

Tested on: pigweed (Amaranthus retroflexus)
assay: Test A preemergence, visual injury rating 0-100
Assay type: in vivo
assay.context: 500 g ai/ha
value.type: Pigweed plant response rating (0 to 100 scale)
Give the figure by itself; no unit, no explanation.

stdin: Query (compound): CC1=[N+]([O-])C(C(=O)Nc2cccc(F)c2F)C(c2ccc(F)c(C(F)(F)F)c2)C1 (racemic) ; field requested: Pigweed plant response rating (0 to 100 scale)
stdout: 80

stdin: Query (compound): CC1=[N+]([O-])C(C(=O)Nc2cccc(F)c2F)C(c2cccc(Oc3ccc(Cl)cn3)c2)C1 (racemic) ; field requested: Pigweed plant response rating (0 to 100 scale)
stdout: 0

stdin: Query (compound): CC1=[N+]([O-])C(C(=O)Nc2cccc(F)c2F)C(c2cc(C)c(F)c(C)c2)C1 (racemic) ; field requested: Pigweed plant response rating (0 to 100 scale)
stdout: 60

stdin: Query (compound): CC1=[N+]([O-])C(C(=O)Nc2ccc(F)c(F)c2F)C(c2ccc(C(F)(F)F)cc2)C1 (racemic) ; field requested: Pigweed plant response rating (0 to 100 scale)
stdout: 80

stdin: Query (compound): CC1=[N+]([O-])C(C(=O)Nc2cccc(F)c2F)C(c2cccc(Cl)c2F)C1 (centres unmarked) ; field requested: Pigweed plant response rating (0 to 100 scale)
stdout: 60

stdin: Query (compound): CC1=[N+]([O-])C(C(=O)Nc2cccc(F)c2F)C(c2cc(F)c(F)c(F)c2)C1 (centres unmarked) ; field requested: Pigweed plant response rating (0 to 100 scale)
stdout: 80

stdin: Query (compound): COc1cc(C2CC(C)=[N+]([O-])C2C(=O)Nc2cccc(F)c2F)cc(C)n1 (racemic) ; field requested: Pigweed plant response rating (0 to 100 scale)
stdout: 20

stdin: Query (compound): CC1=[N+]([O-])C(C(=O)Nc2cccc(F)c2F)C(c2ccc(C(F)(F)F)c(C)c2)C1 (racemic) ; field requested: Pigweed plant response rating (0 to 100 scale)
stdout: 100

stdin: Query (compound): CC1=[N+]([O-])C(C(=O)Nc2cccc(F)c2F)C(c2cc(C)cc(C(F)(F)F)c2)C1 (centres unmarked) ; field requested: Pigweed plant response rating (0 to 100 scale)
stdout: 80

stdin: Query (compound): CC1=[N+]([O-])C(C(=O)Nc2cccc(F)c2F)C(c2cccc(C(F)(F)F)n2)C1 (centres unmarked) ; field requested: Pigweed plant response rating (0 to 100 scale)
stdout: 0

stdin: Query (compound): CC1=[N+]([O-])C(C(=O)Nc2cccc(F)c2F)C(c2cc(F)cc(Oc3ccc(Cl)nc3)c2)C1 (racemic) ; field requested: Pigweed plant response rating (0 to 100 scale)
stdout: 40

stdin: Query (compound): CC1=[N+]([O-])C(C(=O)Nc2cccc(F)c2F)C(c2ccc(Cl)c(F)c2)C1 (racemic) ; field requested: Pigweed plant response rating (0 to 100 scale)
stdout: 80

stdin: Query (compound): CC1=[N+]([O-])C(C(=O)Nc2ccc(F)cc2F)C(c2ccc(C(F)(F)F)cc2)C1 (racemic) ; field requested: Pigweed plant response rating (0 to 100 scale)
stdout: 90

stdin: Query (compound): CCc1cc(CC)cc(C2CC(C)=[N+]([O-])C2C(=O)Nc2cccc(F)c2F)c1 (racemic) ; field requested: Pigweed plant response rating (0 to 100 scale)
stdout: 0

stdin: Query (compound): CC1=[N+]([O-])C(C(=O)Nc2cccc(F)c2F)C(c2cc(C)cc(C)c2)C1 (racemic) ; field requested: Pigweed plant response rating (0 to 100 scale)
stdout: 70

stdin: Query (compound): COc1cc(OC)cc(C2CC(C)=[N+]([O-])C2C(=O)Nc2cccc(F)c2F)c1 (centres unmarked) ; field requested: Pigweed plant response rating (0 to 100 scale)
stdout: 10

stdin: Query (compound): CC1=[N+]([O-])C(C(=O)Nc2cccc(F)c2F)C(c2cc(C)nc(OC(F)F)c2)C1 (racemic) ; field requested: Pigweed plant response rating (0 to 100 scale)
stdout: 90

====

Give Foxtail, Green plant response rating (0 to 100 scale) for every item shown.
System: foxtail, green (green foxtail, Setaria viridis)
assay: Test A preemergence, visual injury rating 0-100
Assay type: in vivo
assay.context: 125 g ai/ha
Give the figure by itself; no unit, no explanation.

stdin: Query (molecule): CC1=[N+]([O-])C(C(=O)Nc2cccc(F)c2F)C(c2ccc(C)c(C)c2)C1 (racemic) [Compound 24] ; field requested: Foxtail, Green plant response rating (0 to 100 scale)
stdout: 90

stdin: Query (molecule): CC1=[N+]([O-])[C@H](C(=O)Nc2cccc(F)c2F)[C@@H](c2ccc3c(c2)OC(F)(F)O3)C1 (relative stereo) [Compound 25] ; field requested: Foxtail, Green plant response rating (0 to 100 scale)
stdout: 90

stdin: Query (molecule): CC1=[N+]([O-])C(C(=O)Nc2ccc(F)cc2F)C(c2ccc(C(F)(F)F)cc2)C1 (racemic) [Compound 46] ; field requested: Foxtail, Green plant response rating (0 to 100 scale)
stdout: 90

stdin: Query (molecule): CC1=[N+]([O-])[C@H](C(=O)Nc2ccc(F)nc2F)[C@@H](c2ccc(C(F)(F)F)cc2)C1 (relative stereo) [Compound 37] ; field requested: Foxtail, Green plant response rating (0 to 100 scale)
stdout: 90

stdin: Query (molecule): CC1=[N+]([O-])C(C(=O)Nc2cccc(F)c2Cl)C(c2ccc(C(F)(F)F)cc2)C1 (racemic) [Compound 31] ; field requested: Foxtail, Green plant response rating (0 to 100 scale)
stdout: 90

stdin: Query (molecule): CC1=[N+]([O-])C(C(=O)Nc2cccc(F)n2)C(c2ccc(C(F)(F)F)cc2)C1 (racemic) [Compound 47] ; field requested: Foxtail, Green plant response rating (0 to 100 scale)
stdout: 90

stdin: Query (molecule): CC1=[N+]([O-])C(C(=O)Nc2cccc(C#N)c2F)C(c2ccc(C(F)(F)F)cc2)C1 (racemic) [Compound 28] ; field requested: Foxtail, Green plant response rating (0 to 100 scale)
stdout: 90

Recorded values, source patent US11498899B2.
